Cited source for all entries: BindingDB's records for doi:10.7270/Q23T9FMP

- experimental target: Steroidogenic factor 1 (Homo sapiens, UniProt Q13285)
- Sequence (Q13285 whole entry, the tested form may be a part): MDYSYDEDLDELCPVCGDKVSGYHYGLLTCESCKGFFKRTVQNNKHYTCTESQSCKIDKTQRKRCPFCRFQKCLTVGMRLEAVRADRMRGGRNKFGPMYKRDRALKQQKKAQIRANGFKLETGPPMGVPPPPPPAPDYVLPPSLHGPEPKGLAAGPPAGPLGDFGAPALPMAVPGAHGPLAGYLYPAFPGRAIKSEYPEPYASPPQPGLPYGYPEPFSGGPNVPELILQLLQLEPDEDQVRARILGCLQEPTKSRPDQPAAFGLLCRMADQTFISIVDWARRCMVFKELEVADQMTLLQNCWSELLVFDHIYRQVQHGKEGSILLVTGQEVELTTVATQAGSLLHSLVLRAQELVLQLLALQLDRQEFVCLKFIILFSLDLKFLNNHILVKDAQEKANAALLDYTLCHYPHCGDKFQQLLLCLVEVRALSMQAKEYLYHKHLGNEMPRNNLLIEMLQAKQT
- experimental protocol: activation of SF-1 LBD reporter – cell-based, CHO-K1, Gal4-SF-1 LBD, luciferase luminescence, dose response (AID 692)
measured quantity: EC50 (nM)
# unit: nM | format: bare number

Consider the following illustrative entries.
> print(dat)
                         molecule.smiles  recorded.value
1              COc1ccc(-c2cn3ccsc3n2)cc1             380
2  CCc1nnc(NC(=O)CSc2nc3c(cc2C#N)CCC3)s1            1210
3  Cc1nc2sc(-c3ccccc3)cc2c(=O)n1-n1cccc1             477

For this compound ( CC(=O)Nc1ccc(-c2cc3ccccc3o2)cc1 ), measured EC50 is 444

For this compound ( CC(=NC1CCCC1)c1c(C)[nH]n(-c2nc3ccccc3s2)c1=O ), measured EC50 is 741

###

- experimental target: Steroidogenic factor 1 (Homo sapiens, UniProt Q13285)
- experimental protocol: activation of SF-1 LBD reporter – cell-based, CHO-K1, Gal4-SF-1 LBD, luciferase luminescence, dose response (AID 692)
Some compounds, each annotated with its measured EC50.
# unit: nM | format: bare number

> print(dat)
                                   compound                       experimental.target  recorded.value
1              CCOC(=O)c1cc2cc(OC)ccc2[nH]1  Steroidogenic factor 1 (Homo sapiens, UniProt Q13285)            1380
2     Cc1ccc(C(=O)Nc2ncc(Cc3ccc(F)cc3)s2)o1  Steroidogenic factor 1 (Homo sapiens, UniProt Q13285)             414
3  CCCCC1CCC(c2nc(-c3ccccn3)no2)CC1 (stereo not drawn)  Steroidogenic factor 1 (Homo sapiens, UniProt Q13285)             543
4       COc1ccc(NC(=O)c2ccc3c(c2)OCO3)cc1Cl  Steroidogenic factor 1 (Homo sapiens, UniProt Q13285)             589
5  Cc1ccc(-n2c(C)cc(C(=O)COC(=O)c3c(C)noc3C)c2C)cc1  Steroidogenic factor 1 (Homo sapiens, UniProt Q13285)            1800
6        CN(C)c1ccc(NC(=O)Nc2cccc(Cl)c2)cc1  Steroidogenic factor 1 (Homo sapiens, UniProt Q13285)             386

Let us move to another entry and its EC50.
For this compound ( COc1ccc(-c2nc3c(Br)c(N)c(Br)cc3o2)cc1 ), measured EC50 is 825

###

- experimental target: Steroidogenic factor 1 (Homo sapiens, UniProt Q13285)
- experimental protocol: activation of SF-1 LBD reporter – cell-based, CHO-K1, Gal4-SF-1 LBD, luciferase luminescence, dose response (AID 692)
measured quantity: EC50

> print(dat)
                                   molecule  measured.quantity  recorded.value
1  Cc1cc2n(n1)C(c1ccc(N(C)C)cc1)Nc1ccccc1-2 (centres undefined)               EC50         > 11 µM
2  CCOC(=O)N1CCN(S(=O)(=O)c2ccc(C(=O)Nc3sc4c(c3C#N)CCC4)cc2)CC1               EC50       > 1.22 µM
3  CC(=O)c1c(C)[nH]c(C(=O)NCCc2cccc(C)c2)c1C               EC50       > 3.67 µM
4  O=c1c2ccccc2nnn1CSc1nnc(COc2ccc(Cl)cc2)n1Cc1ccco1               EC50       > 3.67 µM
5     CC(C)(CC(=O)O)Cc1nc(-c2ccc(Cl)cc2)no1               EC50         > 11 µM
6      Cn1c(-c2ccc3c(c2)OCO3)cnc1NCc1ccccc1               EC50         > 11 µM

For the molecule Cc1csc2nc(CSc3nc4ccccc4o3)cn12 , the measured EC50 on Steroidogenic factor 1 (Homo sapiens, UniProt Q13285) was > 3.67 µM

For the molecule CCc1nc(Nc2ccc3nccnc3c2)c2oc3ccccc3c2n1 , the measured EC50 on Steroidogenic factor 1 (Homo sapiens, UniProt Q13285) was > 99 µM

For the molecule Nn1c(SCC(=O)Nc2ccc(F)cc2F)nnc1-c1cccnc1 , the measured EC50 on Steroidogenic factor 1 (Homo sapiens, UniProt Q13285) was > 11 µM

###

Some molecules, each annotated with its measured EC50.
- experimental target: Steroidogenic factor 1 (Homo sapiens)
- experimental protocol: activation of SF-1 LBD reporter – cell-based, CHO-K1, Gal4-SF-1 LBD, luciferase luminescence, dose response (AID 692)

> print(dat)
                                   molecule  recorded.value
1  CCOc1ccc(OCC)c(NC(=O)CSc2nc3c(c(=O)n(C)c(=O)n3C)n2C(C)C)c1 [MLS000072726]         > 11 µM
2  O=C(NCC1CCCO1)c1coc2nc3ccccc3nc12 (stereo not drawn) [MLS000046703]         > 99 µM

Let us move to another entry and its EC50.
For this molecule ( CN(C)C=Nc1ncnc2c1cnn2-c1ccc(C(F)(F)F)cn1 [MLS000087855] ), measured EC50 is > 99 µM

###

- experimental target: Steroidogenic factor 1 (Homo sapiens)
- experimental protocol: activation of SF-1 LBD reporter – cell-based, CHO-K1, Gal4-SF-1 LBD, luciferase luminescence, dose response (AID 692)
pEC50: −log10 of the molar value.
Some compounds, each annotated with its measured pEC50.

> print(dat)
                                   compound  measured.quantity  recorded.value
1  CC1(C)CC(=O)C(=CNc2ccc3[nH]ncc3c2)C(=O)C1              pEC50          < 4.96

For this compound ( COc1ccc(OC)c2sc(NC(=O)c3ccc(Br)s3)nc12 ), measured pEC50 is < 4.00

For this compound ( CC1(C)Cc2c(sc(NC(=O)c3ccc(Br)o3)c2C#N)CO1 ), measured pEC50 is < 6.39

For this compound ( COCC(C)NC(=O)c1noc2c1CCc1cc(OC)ccc1-2 (stereo unspecified) ), measured pEC50 is < 5.91

For this compound ( CCOC(=O)CSc1nc(-c2ccc3c(c2)OCO3)ccc1C#N ), measured pEC50 is < 5.44

For this compound ( c1ccc2nc3c(nc2c1)c1ccccc1n3CCN1CCOCC1 ), measured pEC50 is < 4.96
